biological target: human full-length glucocorticoid receptor (Homo sapiens); construct: recombinantly expressed human full-length glucocorticoid receptor; purchased PanVera Co., Madison, Wis; P2816; assay: Glucocorticoid Receptor Binding Assay (II), fluorescence polarization competitor kit (Fluormone GS1); settings: cell lysate with recombinant human full-length GR
Sequence (P04150 whole entry): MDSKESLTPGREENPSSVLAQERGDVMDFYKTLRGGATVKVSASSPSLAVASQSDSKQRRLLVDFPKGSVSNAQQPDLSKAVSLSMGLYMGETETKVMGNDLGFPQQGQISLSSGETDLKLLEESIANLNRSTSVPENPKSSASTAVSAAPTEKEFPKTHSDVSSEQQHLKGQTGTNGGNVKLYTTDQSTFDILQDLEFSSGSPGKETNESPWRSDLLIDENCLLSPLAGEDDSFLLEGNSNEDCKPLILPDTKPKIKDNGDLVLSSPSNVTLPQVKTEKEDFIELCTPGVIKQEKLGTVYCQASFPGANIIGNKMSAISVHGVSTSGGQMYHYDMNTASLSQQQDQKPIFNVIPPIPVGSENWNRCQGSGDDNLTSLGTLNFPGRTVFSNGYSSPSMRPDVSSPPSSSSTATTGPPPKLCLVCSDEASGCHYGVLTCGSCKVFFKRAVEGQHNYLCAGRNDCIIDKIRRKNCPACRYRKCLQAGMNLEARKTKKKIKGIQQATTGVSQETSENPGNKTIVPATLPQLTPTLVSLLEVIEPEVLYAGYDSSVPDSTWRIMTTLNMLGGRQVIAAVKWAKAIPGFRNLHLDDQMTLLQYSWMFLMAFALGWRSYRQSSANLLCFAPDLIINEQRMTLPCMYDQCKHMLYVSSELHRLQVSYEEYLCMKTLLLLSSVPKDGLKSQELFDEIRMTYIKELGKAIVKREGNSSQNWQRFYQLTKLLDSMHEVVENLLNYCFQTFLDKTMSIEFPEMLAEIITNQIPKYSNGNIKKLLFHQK
Would you mind telling me the reported Ki of each entry?

The compound CC(C)CC(c1ccc2c(cnn2-c2ccc(F)cc2)c1)C(C)(C)CNS(=O)(=O)CC(F)(F)F (single isomer, unassigned) [Example 57B] , when measured on human full-length glucocorticoid receptor (Homo sapiens), yielded Ki of 15 nM

Simply: CC(C)CC(c1ccc2c(cnn2-c2ccc(F)cc2)c1)C(C)(C)CNC(=O)NC1CCC1 (stereo not drawn) [Example 27] , human full-length glucocorticoid receptor (Homo sapiens), Ki = 6.4 nM

# lookup: CC(C)(CNC(=O)CC(F)(F)F)[C@H](c1ccccc1)c1ccc2[nH]ncc2c1 [(R)-82] on human full-length glucocorticoid receptor (Homo sapiens), Ki = 628 nM

Ki value, target or system human full-length glucocorticoid receptor (Homo sapiens), for CC(C)(CNc1nncs1)C(c1ccccc1)c1ccc2c(cnn2-c2ccc(F)cc2)c1 (stereo not drawn) [Example 109] : 9.2 nM

Field Ki (system: human full-length glucocorticoid receptor (Homo sapiens)) for entry CC(C)(C(O)c1ccccc1)C(c1ccccc1)c1ccc2c(cnn2-c2ccc(F)cc2)c1 (stereo not drawn) [Example 121] = 69 nM

human full-length glucocorticoid receptor (Homo sapiens) data for CC(C)(CNC(=O)Cc1cccs1)[C@H](c1ccccc1)c1ccc2c(cnn2-c2ccc(F)cc2)c1 [Example 21] ; its Ki: 39 nM

human full-length glucocorticoid receptor (Homo sapiens) assay, compound CC(C)CC(c1ccc2c(cnn2-c2ccc(F)cc2)c1)C(C)(C)CNC(=O)NCC(F)(F)F (single isomer, unassigned) [Example 58B] , recorded Ki = 8.8 nM

Entry CC(C)CC(c1ccc2c(cnn2-c2ccc(F)cc2)c1)C(C)(C)CNC(=O)NCC(F)(F)F (single isomer, unassigned) [Example 58A] ; assay system human full-length glucocorticoid receptor (Homo sapiens); Ki recorded at 14 nM

I looked up CC(C)(C(O)Cc1ccccc1)C(c1ccccc1)c1ccc2c(cnn2-c2ccc(F)cc2)c1 (stereo not drawn) [Example 124] and its Ki for human full-length glucocorticoid receptor (Homo sapiens) was 75 nM

Measured Ki for this entry CC(C)CC(c1ccc2c(cnn2-c2ccc(F)cc2)c1)C(C)(C)CNC(=O)CC(F)(F)F (single isomer, unassigned) [Example 59B] on human full-length glucocorticoid receptor (Homo sapiens): 9.3 nM

Value sought: Ki, system human full-length glucocorticoid receptor (Homo sapiens), item CC(C)(CNC(=O)C1(C(F)(F)F)CC1)[C@@H](c1ccccc1)c1ccc2c(cnn2-c2ccc(F)cc2)c1 [Example 10] . Result: 19 nM

Case CC(C)CC(c1ccc2c(cnn2-c2ccc(F)cc2)c1)C(C)(C)CNC(=O)N(C)C(C)(C)C (stereo not drawn) [Example 31] , human full-length glucocorticoid receptor (Homo sapiens), Ki recorded as 19 nM

Measured on human full-length glucocorticoid receptor (Homo sapiens), O=C(NCCC(c1ccccc1)c1ccc2c(cnn2-c2ccc(F)cc2)c1)C(F)(F)F (stereo not drawn) [Example 112] has a documented Ki of 11 nM

The observed Ki for CC(C)(C(=O)c1ccccc1)C(c1ccccc1)c1ccc2c(cnn2-c2ccc(F)cc2)c1 (stereo not drawn) [Example 125] when tested with human full-length glucocorticoid receptor (Homo sapiens) stands at 14 nM

Field Ki (system: human full-length glucocorticoid receptor (Homo sapiens)) for entry CC(C)CC(c1ccc2c(cnn2-c2ccc(F)cc2)c1)C(C)(C)CNC(=O)NC1CC1 (stereo not drawn) [Example 26] = 8.6 nM
